# TARGET_OR_TEST_SYSTEM: hCB1R (Homo sapiens, UniProt P21554)
# Sequence (P21554 whole entry): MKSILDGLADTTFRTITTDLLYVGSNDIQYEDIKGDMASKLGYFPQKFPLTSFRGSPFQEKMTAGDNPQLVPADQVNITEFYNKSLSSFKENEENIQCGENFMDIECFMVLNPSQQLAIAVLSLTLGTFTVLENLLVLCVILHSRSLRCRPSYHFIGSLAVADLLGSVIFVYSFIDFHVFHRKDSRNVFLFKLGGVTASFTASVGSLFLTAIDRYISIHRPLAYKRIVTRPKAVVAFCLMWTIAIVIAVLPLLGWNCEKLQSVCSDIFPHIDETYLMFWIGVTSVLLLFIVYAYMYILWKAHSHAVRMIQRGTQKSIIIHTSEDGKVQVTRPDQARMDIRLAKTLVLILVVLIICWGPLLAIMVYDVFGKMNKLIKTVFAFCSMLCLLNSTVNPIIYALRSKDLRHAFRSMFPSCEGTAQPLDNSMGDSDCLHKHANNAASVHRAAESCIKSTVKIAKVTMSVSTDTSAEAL
# ASSAY_DETAILS: cell-based
# DETAILS: Table 1; mean ± SD; read-out: EC50 hCB1R (cAMP assay)
VALUE_KIND: EC50

Solved cases (3 shown):
> print(dat)
                                   compound  value.kind  observed.value
1  COCCOCCc1cc(NC(=O)C(C)(C)S(=O)(=O)C2CCOCC2)on1 [RNB-70]        EC50         > 10 µM
2  CC(C)(Oc1ccc(C(F)(F)F)cn1)C(=O)Cc1cc(C(C)(C)C)no1 [RNB-90]        EC50       0.0196 µM
3  N#Cc1cc(NC(=O)CCc2nc(-c3ccc(F)cc3Cl)no2)cnc1CC(F)(F)F [RNB-73]        EC50         > 10 µM

Then there is this compound:
Enquiry: Tell me the measured EC50 of Cn1c(C(C)(C)C)cc(=NC(=O)c2cc(C(F)(F)F)ccc2OCC(C)(C)O)n1CC1CCC1 [RNB-61] , please.
Return: > 10 µM
